Experiment: PAMPA (parallel artificial membrane permeability assay)
Type: in vitro ADME
Experimental setup: PAMPA, pH 6.5
Positions of bridges follow the written chain, without caps; N, C: chain ends. Non-standard residues stand in square brackets, D forms with d. Residues, ends and D or L forms follow the SMILES beside them. *: point of attachment. NMeI = CC[C@H](C)[C@H](NC)C(=O)O; NMeL = CN[C@@H](CC(C)C)C(=O)O; NMeV = CN[C@H](C(=O)O)C(C)C; NMeA = CN[C@@H](C)C(=O)O; Piperidide = C1CCN(*)CC1; Sar = CNCC(=O)O
Please go through the items and note down their Papp at 18 hours, 50 µM.
Respond with the bare value in ×10⁻⁶ cm/s.

The value of Papp at 18 hours, 50 µM measured for the compound CC[C@H](C)[C@@H]1NC(=O)[C@H](Cc2cccc(Cl)c2)N(C)C(=O)[C@H](CC(C)C)N(C)C(=O)C[C@@H](C(=O)N2CCCCC2)NC(=O)[C@H](CC(C)C)N(C)C(=O)[C@H](CC(C)C)N(C)C(=O)[C@H](CC(C)C)NC(=O)[C@H](C)N(C)C(=O)[C@@H](NC(=O)[C@H](CC(C)C)N(C)C(=O)[C@@H]2CCCN2C(=O)CO)CCCCNC1=O turned out to be 8.9

The value of Papp at 18 hours, 50 µM measured for the compound CC[C@H](C)[C@H]1C(=O)N(C)[C@@H](CC(C)C)C(=O)N[C@H](C(=O)N2CCCCC2)CC(=O)N(C)CC(=O)N[C@@H]([C@@H](C)O)C(=O)N(C)[C@@H](C)C(=O)N(C)[C@@H](C(C)C)C(=O)N[C@@H](Cc2ccccc2)C(=O)N(C)CC(=O)N[C@@H](C)C(=O)N1C [DP-75] ([Sar]T[NMeA][NMeV]F[Sar]A[NMeI][NMeL]D-Piperidide; lactam N-10) turned out to be 3.3
